The reported measurements were obtained from patent US20200339690A1.

- STUDY_TARGET: T1, human LILRA4 (human, UniProt P59901 24-499)
- T1 construct: Over-expressed on CHO-s cells; also called hLILRA4
- T1 sequence (P59901 other isoform, or with tags, fused parts or gaps limits assumed): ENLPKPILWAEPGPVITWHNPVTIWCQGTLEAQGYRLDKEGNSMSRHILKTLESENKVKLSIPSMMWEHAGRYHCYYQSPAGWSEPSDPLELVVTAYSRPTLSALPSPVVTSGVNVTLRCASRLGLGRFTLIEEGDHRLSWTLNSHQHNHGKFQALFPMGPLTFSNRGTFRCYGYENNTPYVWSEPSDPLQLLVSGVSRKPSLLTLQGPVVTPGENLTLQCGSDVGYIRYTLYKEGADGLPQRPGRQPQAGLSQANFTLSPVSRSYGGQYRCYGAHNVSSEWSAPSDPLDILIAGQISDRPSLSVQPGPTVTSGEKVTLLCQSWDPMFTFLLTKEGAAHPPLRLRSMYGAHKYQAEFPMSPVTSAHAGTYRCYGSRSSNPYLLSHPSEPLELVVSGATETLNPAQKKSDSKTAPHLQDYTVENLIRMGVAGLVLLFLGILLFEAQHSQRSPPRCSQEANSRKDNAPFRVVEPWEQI
- PROTOCOL_DETAILS: flow cytometry, LILRA4 CHOs
OBSERVED_PROPERTY: binding (fold over iso)
Your answer is read as fold over iso, so omit the unit and give the number.

{"BINDER": "J-19.h2 (antibody, human IgG4 S228P, kappa, V domains shown, Humanized, human IgG4 backbone) VH: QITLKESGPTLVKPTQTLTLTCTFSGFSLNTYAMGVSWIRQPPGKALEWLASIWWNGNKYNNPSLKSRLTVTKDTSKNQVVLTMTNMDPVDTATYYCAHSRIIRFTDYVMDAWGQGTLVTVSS VL: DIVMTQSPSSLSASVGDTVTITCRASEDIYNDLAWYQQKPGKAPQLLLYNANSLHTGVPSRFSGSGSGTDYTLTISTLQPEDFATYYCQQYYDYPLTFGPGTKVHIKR", "binding (fold over iso)": 0.84}
{"BINDER": "J-19.h4 (antibody, human IgG4 S228P, kappa, V domains shown, Humanized, human IgG4 backbone) VH: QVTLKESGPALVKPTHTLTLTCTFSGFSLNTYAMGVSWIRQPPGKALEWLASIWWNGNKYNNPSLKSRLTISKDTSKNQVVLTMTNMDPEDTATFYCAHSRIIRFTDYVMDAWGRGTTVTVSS VL: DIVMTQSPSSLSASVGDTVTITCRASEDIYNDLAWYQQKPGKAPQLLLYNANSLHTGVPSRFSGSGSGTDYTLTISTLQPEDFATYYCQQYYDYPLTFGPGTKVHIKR", "binding (fold over iso)": 1.09}
{"BINDER": "J-19.h1 (antibody, human IgG4 S228P, kappa, V domains shown, Humanized, human IgG4 backbone) VH: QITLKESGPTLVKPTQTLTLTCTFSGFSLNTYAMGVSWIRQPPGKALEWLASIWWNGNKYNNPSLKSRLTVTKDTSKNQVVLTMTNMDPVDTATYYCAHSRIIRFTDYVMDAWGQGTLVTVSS VL: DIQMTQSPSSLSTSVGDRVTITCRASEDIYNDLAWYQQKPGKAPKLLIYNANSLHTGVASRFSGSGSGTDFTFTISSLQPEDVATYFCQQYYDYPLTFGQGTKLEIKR", "binding (fold over iso)": 0.95}

# evaluate next
For J-19.h3 (antibody, human IgG4 S228P, kappa, V domains shown, Humanized, human IgG4 backbone) VH: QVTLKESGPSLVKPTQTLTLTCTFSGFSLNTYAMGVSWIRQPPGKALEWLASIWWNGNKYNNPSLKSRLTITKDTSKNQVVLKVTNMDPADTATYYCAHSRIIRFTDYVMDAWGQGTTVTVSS VL: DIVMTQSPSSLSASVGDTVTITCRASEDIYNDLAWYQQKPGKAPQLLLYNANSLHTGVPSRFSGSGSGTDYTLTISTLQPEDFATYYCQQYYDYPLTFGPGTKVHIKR , what is its reported binding (fold over iso)?
0.99
